Target: GST-Als5-SS (Candida albicans)
Construct: made in house; host or cells: E. coli BL21(DE3)
Sequence (Q5A8T7 whole entry): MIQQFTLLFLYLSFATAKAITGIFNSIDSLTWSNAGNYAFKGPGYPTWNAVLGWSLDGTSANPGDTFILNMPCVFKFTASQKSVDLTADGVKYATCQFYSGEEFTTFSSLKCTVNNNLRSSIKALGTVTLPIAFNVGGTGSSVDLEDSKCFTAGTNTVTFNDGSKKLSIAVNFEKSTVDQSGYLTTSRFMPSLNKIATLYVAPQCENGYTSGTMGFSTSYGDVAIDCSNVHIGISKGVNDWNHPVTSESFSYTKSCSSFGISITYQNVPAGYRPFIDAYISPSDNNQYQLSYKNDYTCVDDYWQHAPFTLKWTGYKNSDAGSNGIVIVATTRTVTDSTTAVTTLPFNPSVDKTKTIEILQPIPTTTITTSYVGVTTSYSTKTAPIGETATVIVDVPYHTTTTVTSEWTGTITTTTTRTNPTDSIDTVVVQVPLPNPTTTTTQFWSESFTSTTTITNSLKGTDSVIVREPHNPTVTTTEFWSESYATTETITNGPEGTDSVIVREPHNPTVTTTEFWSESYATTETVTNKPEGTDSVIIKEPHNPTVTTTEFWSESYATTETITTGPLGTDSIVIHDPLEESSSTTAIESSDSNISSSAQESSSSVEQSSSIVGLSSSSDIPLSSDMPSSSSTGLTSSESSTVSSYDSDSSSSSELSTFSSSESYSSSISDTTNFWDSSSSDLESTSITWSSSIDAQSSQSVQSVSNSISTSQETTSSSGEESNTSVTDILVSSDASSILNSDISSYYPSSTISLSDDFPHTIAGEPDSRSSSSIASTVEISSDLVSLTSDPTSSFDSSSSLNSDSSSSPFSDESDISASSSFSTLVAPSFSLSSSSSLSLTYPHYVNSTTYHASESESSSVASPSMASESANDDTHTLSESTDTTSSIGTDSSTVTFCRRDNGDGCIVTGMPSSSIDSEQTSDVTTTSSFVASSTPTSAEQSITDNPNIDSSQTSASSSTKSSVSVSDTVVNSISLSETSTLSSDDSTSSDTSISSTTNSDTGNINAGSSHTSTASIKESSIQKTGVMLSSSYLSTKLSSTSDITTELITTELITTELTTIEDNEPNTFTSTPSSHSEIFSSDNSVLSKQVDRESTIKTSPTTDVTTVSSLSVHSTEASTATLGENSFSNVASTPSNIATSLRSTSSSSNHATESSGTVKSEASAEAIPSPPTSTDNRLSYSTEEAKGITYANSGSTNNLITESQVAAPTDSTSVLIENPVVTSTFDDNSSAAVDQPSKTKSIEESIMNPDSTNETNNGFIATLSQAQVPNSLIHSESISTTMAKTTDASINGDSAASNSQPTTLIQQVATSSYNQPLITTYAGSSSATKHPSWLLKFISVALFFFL
Assay: biochemical
Format: binding
Ends that are not written are not given here.
assay endpoint: pKd
Numbers only, as −log10 of the molar value.

If you can, please state the reported pKd value of EHAHTPR [EHAHTPR] . 7.19

* * *

Record form. Attribute: pKd. Fill in for each entry.
Biological target: GST-Als5 (Candida albicans)
Construct: made in house; host or cells: E. coli BL21(DE3)
Sequence (Q5A8T7 1-1327): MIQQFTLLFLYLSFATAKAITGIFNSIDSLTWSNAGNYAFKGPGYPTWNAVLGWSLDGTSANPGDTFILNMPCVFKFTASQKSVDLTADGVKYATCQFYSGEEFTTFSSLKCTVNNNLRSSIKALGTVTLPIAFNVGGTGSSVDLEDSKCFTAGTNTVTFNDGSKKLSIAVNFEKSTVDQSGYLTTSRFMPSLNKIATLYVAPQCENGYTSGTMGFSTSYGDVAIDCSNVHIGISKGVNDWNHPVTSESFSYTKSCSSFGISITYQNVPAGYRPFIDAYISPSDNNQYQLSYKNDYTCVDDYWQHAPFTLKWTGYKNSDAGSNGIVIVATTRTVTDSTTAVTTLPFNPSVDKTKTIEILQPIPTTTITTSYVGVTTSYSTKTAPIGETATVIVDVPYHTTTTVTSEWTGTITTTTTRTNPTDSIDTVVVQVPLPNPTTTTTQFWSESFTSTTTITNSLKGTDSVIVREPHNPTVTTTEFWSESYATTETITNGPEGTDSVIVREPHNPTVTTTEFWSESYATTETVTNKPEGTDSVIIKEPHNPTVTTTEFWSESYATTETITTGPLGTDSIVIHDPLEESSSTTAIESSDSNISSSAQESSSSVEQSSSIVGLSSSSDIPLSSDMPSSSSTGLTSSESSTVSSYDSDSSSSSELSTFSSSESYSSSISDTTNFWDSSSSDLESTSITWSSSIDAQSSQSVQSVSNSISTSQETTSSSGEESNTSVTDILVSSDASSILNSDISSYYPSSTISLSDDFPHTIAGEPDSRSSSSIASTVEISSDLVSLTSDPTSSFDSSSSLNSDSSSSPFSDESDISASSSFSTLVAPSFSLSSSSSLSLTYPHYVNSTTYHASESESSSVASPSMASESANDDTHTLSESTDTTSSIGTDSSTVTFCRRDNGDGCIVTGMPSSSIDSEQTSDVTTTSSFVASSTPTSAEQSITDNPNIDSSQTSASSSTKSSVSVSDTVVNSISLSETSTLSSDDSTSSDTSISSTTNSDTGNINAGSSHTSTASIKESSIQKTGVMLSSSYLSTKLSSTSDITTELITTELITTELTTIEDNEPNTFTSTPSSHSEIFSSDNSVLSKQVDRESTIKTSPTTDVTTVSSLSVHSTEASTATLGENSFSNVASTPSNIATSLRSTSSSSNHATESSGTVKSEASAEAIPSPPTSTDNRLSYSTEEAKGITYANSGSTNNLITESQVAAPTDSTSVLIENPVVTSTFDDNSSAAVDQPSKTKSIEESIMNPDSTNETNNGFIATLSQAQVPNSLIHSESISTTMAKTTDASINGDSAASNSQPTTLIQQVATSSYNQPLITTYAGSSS
Experiment: biochemical
Assay type: binding
Details: Kd, 47 °C; N.B. = no binding observed; 0.02 mg/ml protein, excitation 295 nm, one-site saturation model; average of three independent measurements in duplicates
Ends that are not written are not given here.
Answers are plain numbers, as −log10 of the molar value.

Examples with their reported pKd follow.
# substance, pKd
records = [
    ("KLRIPSV [KLRIPSV]", 8.15),
    ("EHAHTPR [EHAHTPR]", 7.47),
]

In the following, a different substance is considered.
If you can, please state the reported pKd value of AYKSLMT [AYKSLMT] . 7.89
